Target: human TLR8 (Homo sapiens)
Construct: expressed in transfected cells; host or cells: HEK293
Sequence (Q9NR97 27-1041): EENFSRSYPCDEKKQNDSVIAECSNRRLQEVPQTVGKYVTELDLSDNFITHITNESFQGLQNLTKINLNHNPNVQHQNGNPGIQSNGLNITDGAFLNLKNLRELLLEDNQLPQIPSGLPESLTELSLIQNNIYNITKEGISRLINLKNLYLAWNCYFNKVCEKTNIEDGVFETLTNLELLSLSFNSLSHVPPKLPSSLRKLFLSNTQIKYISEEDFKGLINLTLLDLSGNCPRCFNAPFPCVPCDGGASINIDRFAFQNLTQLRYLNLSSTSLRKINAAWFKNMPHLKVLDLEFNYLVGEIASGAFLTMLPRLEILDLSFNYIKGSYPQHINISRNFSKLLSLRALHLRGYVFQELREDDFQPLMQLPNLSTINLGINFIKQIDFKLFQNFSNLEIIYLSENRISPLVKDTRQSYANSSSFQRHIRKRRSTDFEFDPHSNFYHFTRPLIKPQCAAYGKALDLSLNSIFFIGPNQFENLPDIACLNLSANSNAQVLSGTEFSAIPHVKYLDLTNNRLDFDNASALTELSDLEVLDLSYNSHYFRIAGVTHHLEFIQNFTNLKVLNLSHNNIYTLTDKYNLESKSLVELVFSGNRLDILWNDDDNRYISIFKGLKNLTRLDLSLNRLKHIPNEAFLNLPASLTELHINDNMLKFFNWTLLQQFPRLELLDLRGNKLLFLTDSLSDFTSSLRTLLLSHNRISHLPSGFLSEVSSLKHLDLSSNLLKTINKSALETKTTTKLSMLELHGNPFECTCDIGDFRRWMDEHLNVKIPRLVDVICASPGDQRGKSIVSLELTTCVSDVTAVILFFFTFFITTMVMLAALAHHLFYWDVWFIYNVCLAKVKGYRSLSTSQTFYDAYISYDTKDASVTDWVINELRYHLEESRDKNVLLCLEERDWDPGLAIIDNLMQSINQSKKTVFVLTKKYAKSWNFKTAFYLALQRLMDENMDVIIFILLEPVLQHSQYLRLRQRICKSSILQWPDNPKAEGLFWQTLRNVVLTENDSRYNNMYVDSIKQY
Test: TLR8 cellular reporter assay (HEK293, NFκB-luc)
Type: cell-based
Details: HEK293 transiently transfected with TLR8 and NFκB-luc; 6 hours incubation; lowest effective concentration
RECORDED_ENDPOINT: Human TLR 8 (LEC) (µM)
Give bare numbers, in µM.

Some solved cases for reference:
CCCCNc1nc(N)nnc1OCCOC [Compound 22] ... 1.0
CCCCNc1nc(N)nnc1OCCCc1ccc(OC)cc1 [Compound 16] ... 0.81
CCC[C@@H](CCO)Nc1nc(N)nnc1OCc1nccc(OC)c1OC [Compound 8] ... 0.56
CCCCNc1nc(N)nnc1OCc1ccccc1 [Compound 15] ... 1.93
CCCCNc1nc(N)nnc1OCCCN(C)C [Compound 24] ... 0.1

Query for human TLR8 (Homo sapiens): what Human TLR 8 (LEC) does the record show for CCCCNc1nc(N)nnc1OCc1ccccc1OC [Compound 19] ? 0.64

---

Target: human TLR7 (Homo sapiens, UniProt Q9NYK1)
Construct: expressed in transfected cells; host or cells: HEK293
Sequence (Q9NYK1 27-1049): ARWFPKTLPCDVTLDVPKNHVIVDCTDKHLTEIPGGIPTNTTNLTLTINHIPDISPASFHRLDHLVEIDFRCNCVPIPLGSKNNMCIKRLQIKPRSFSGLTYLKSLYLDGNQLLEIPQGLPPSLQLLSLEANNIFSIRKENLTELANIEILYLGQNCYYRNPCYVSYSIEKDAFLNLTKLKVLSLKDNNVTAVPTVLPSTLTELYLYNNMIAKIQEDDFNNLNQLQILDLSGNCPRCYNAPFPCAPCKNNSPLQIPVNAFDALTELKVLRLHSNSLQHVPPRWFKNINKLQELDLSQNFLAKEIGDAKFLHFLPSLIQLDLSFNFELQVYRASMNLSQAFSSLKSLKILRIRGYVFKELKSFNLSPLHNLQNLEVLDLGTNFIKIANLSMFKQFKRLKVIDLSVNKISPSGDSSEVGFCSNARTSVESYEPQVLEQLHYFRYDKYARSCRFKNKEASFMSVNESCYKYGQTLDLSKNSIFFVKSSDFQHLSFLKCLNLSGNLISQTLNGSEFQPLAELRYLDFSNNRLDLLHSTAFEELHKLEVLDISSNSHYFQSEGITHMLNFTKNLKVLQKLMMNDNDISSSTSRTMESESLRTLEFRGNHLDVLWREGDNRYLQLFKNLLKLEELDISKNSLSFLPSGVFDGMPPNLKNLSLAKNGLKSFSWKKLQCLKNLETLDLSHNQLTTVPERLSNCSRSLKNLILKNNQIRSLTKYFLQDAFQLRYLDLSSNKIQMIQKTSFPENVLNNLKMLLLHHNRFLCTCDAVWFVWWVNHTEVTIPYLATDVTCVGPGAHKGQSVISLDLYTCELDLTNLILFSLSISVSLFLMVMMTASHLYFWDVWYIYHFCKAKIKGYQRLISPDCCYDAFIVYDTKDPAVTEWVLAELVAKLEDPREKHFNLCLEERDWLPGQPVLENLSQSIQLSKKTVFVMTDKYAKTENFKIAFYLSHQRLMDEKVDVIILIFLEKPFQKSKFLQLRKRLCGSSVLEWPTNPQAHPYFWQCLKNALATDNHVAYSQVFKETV
Assay: TLR7 cellular reporter assay (HEK293, NFκB-luc)
Assay type: cell-based
Conditions: HEK293 transiently transfected with TLR7 and NFκB-luc; 6 hours incubation; lowest effective concentration
Note to self: use 1.0 only for Human TLR 7 (LEC) readings below 2 µM; a reading exactly at 2 µM still gets 0.0.

Solved cases below.
CCC[C@@H](CCO)Nc1nc(N)nnc1OCc1nccc(OC)c1OC ... 1.0
CCCCNc1nc(N)nnc1OCc1cccnc1 ... 1.0
CCCCNc1nc(N)nnc1OCCOC ... 0.0

Strictly below 2 µM: is that where Human TLR 7 (LEC) of CCCCNc1nc(N)nnc1OC sits? 0.0

And CCCCNc1nc(N)nnc1OCc1ccccc1 ? 0.0

---

For each entry below, report its minimal effective concentration value.
Tested on: interferon-stimulated responsive elements (ISRE)
Test: Activation of ISRE promoter elements by conditioned media from PBMC (HEK-ISREluc)
Type: cell-based
Conditions: Homo sapiens; PBMC conditioned medium transferred to HEK-ISREluc cells; 24 hours; lowest effective concentration; read-out: HEK-ISRE luc (LEC)
Answers are plain numbers, in µM.

CCCC[C@@H](CCO)Nc1nc(N)nnc1OC ... 2.72

Report minimal effective concentration for each item below.
1. CCC[C@@H](CCO)Nc1nc(N)nnc1OCc1nccc(OC)c1OC
2. CCCCNc1nc(N)nnc1OC
3. CCCCNc1nc(N)nnc1OCc1ccccn1
4. CCCCNc1nc(N)nnc1OCc1ccccc1
5. CCCCNc1nc(N)nnc1OCc1ccccc1OC
6. CCCCNc1nc(N)nnc1OCCCc1ccc(OC)cc1
7. CCCCNc1nc(N)nnc1OC(C)C

[0.014, 1.02, 0.14, 1.85, 0.43, 0.14, 0.53]

---

Target: human TLR7 (Homo sapiens)
Construct: expressed in transfected cells; host or cells: HEK293
Assay: TLR7 cellular reporter assay (HEK293, NFκB-luc)
Format: cell-based
Conditions: HEK293 transiently transfected with TLR7 and NFκB-luc; 6 hours incubation; lowest effective concentration
Provide the reported Human TLR 7 (LEC) of each item.
Answers are plain numbers, in µM.

Below: 4 compounds and their reported Human TLR 7 (LEC).
CCCCNc1nc(N)nnc1OCc1ccccc1F [Compound 20] ... 0.75
CCCC[C@@H](CCO)Nc1nc(N)nnc1OC [Compound 12] ... 7.8
CCCCNc1nc(N)nnc1OCCCc1ccc(OC)cc1 [Compound 16] ... 0.38
CCCCNc1nc(N)nnc1OC(C)C [Compound 18] ... 8.27

Which Human TLR 7 (LEC) is listed for CCCCNc1nc(N)nnc1OCc1ccccn1 [Compound 23] ? 0.17
